Hey, just so you know, these numbers are from patent EP3085709A1.

study-system: T1, recombinant human RANKL (soluble, Gly136-Asp317, N-terminal 10 His, expressed in CHO cells) (human, UniProt O14788 136-317)
T1 construct: residues between secretion signal and His tag are not described; also called hRANKL; hRNAKL
T1 sequence: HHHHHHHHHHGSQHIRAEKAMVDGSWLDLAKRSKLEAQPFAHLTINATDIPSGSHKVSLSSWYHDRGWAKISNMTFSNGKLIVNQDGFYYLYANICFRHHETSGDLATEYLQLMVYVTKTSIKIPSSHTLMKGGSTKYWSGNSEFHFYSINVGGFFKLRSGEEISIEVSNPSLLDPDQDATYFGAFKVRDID
measurement-description: direct ELISA, human RANKL coated 1 µg/ml
parameter-measured: EC50 (µg/mL)
Field format: number, assumed µg/mL, no unit text.

Please review the following examples before continuing.
1. 114-6.6.29 (antibody, V domains shown, Murine monoclonal antibody from hybridoma) VH: DVKLVESGGGLVKPGGSLKLSCAASGFTFSSYTMSWVRQTPEKRLEWVATISSGGSYTYYPDSVKGRFTISRDNAKNTLYLQMSSLKSEDTAMYYCTRDWDYYGTTYVGGYAMDYWGQGTSVTVSS VL: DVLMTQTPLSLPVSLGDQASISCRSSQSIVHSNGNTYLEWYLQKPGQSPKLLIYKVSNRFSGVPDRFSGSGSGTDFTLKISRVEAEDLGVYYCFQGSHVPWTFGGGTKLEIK = 0.0117
2. 114-7.38.48 (antibody, V domains shown, Murine monoclonal antibody from hybridoma) VH: DVQLQESGPDLVKPSQSLSLTCTVTGYSITSAYSWHWIRQFPGNKLEWMGYIHFSGVTNYNPSLKSRISITRDASKNQFFLQLSSVTTEDTATYYCATRRETGFTYWGQGTLVTVSA VL: DIVLTQSPATLSVTPGDSVSLSCRASQSISKNLHWYQQKSHESPRLLIKYASQSISGIPSRFSGSGSGTDFTLSINSVETEDFGIYFCQQINSWPLTFGAGTKLELK = 0.0185

Problem: Report EC50, nothing else, for this binder: 114-2.222 (antibody, V domains shown, Murine monoclonal antibody from hybridoma) VH: EVQLQQSGAELVKPGASVKLSCTTSGFNIKATYIHWVQQRPEQGLEWIGRIDPANGNTKYDSKFQGKATITADTSSNTAYLQLSSLTSEDTAVYFCARSLHYYVFFDYWGQGTTLTVSS VL: DIQMTQTTSSLSASLGDRVTISCSASQGISNYLNWYQQKPDGTVKLLIYSTSSLHSGVPSRFSGSGSGTDYSLTISSLEPEDIATYYCQQYSKLPLTFGAGTKLELKR
Result: 0.0137
